molecular target: KRas G12C (Homo sapiens, UniProt P01116, G12C); construct: NCI-H358 cells (ATCC CRL-5807) express KRas G12C; assay: Inhibition of KRas G12C in NCI-H358 cells measured by phosphorylated ERK (Phospho-ERK); details: pERK(Thr202/Tyr204) signal normalized with GAPDH, percent of DMSO control, 3 hours compound treatment
Sequence (P01116 1-188 isoform P01116-2 G12C): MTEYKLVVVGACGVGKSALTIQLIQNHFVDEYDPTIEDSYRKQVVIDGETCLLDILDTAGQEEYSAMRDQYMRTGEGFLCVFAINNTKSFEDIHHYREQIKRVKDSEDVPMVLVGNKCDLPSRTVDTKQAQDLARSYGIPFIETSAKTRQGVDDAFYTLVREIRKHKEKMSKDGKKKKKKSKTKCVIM
pIC50: −log10 of the molar value.
Measured pIC50, listed per entry.

Sample answers from the record:
// lookup pIC50 for C=CC(=O)N1CCN(c2nc(OC[C@@H]3CCCN3C)nc3c2CCCN(c2cccc(F)c2C(F)(F)F)C3)C[C@@H]1CC#N [Example 14]
≥ 6.30

// lookup pIC50 for C=C(F)C(=O)N1CCN(c2nc(OC[C@@H]3CCCN3C)nc3c2CCCN(c2cccc4cccc(C)c24)C3)C[C@@H]1CC#N [Example 2]
< 6.30

// lookup pIC50 for C=C(F)C(=O)N1CCN(c2nc(OC[C@@H]3CCCN3C)nc3c2CCCN(c2cccc4[nH]ncc24)C3)C[C@@H]1CC#N [Example 26]
< 6.30

// lookup pIC50 for C=CC(=O)N1CCN(c2nc(OC[C@@H]3CCCN3C)nc3c2CCCN(c2nccc4cccc(C)c24)C3)C[C@@H]1CC#N [Example 17]
≥ 6.30

// lookup pIC50 for C=CC(=O)N1CCN(c2nc(OC[C@@H]3CCCN3C)nc3c2CCCN(c2cccc4c(C)cccc24)C3)C[C@@H]1CC#N [Example 11]
< 6.30

Further cases:
// lookup pIC50 for C=CC(=O)N1CCN(c2nc(OC[C@@H]3CCCN3C)nc3c2CCCN(c2cccc(F)c2C)C3)C[C@@H]1CC#N [Example 9]
≥ 6.30

// lookup pIC50 for C=CC(=O)N1CCN(c2nc(OC[C@@H]3CCCN3C)nc3c2CCCN(c2cccc4c(F)cccc24)C3)C[C@@H]1CC#N [Example 12]
≥ 6.30

// lookup pIC50 for C=CC(=O)N1CCN(c2nc(OC[C@@H]3CCCN3C)nc3c2CCCN(c2c(F)ccc4ccccc24)C3)C[C@@H]1CC#N [Example 10]
≥ 6.30
